# Target entity: IKZF3-GFP (Homo sapiens, UniProt Q9UKT9)
# Construct: gateway cloning of IKZF3 from a pENTR221-IKZF3(STOP-Leu) construct into the previously described pLenti6-DEST-GFP-Ires-RFP vector; expressed in transfected cells; host or cells: HEK293A cells (Invitrogen R70507), lentiviral transduction with pLenti6-IKZF3-GFP-Ires-RFP, blasticidin-selected
# Run description: IKZF3-GFP protein abundance flow cytometry assay in HEK293A cells
# Format: cell-based
# Condition details: 24 h, % protein remaining at maximum degradation, Table 1
Quantity name: IKZF3 deg Amax % (%)

- Compound: "COc1ccc(C(=O)N2CCC3(CCN(Cc4ccc(-c5cc6c(-c7cc(F)cc(NC(=O)N8C[C@@H](CC(C)C)[C@H](O)C8)c7C)ncnc6[nH]5)cc4)CC3)CC2)cc1N1CCC(=O)NC1=O (racemic) [Compound 5]"
  Quantity name: "IKZF3 deg Amax %"
  Reported measurement: 103.7
- Compound: "COc1ccc(C(=O)N2CCC3(CCN(CCc4ccc(-c5cc6c(-c7cc(F)cc(NC(=O)N8C[C@@H](CC(C)C)[C@H](O)C8)c7C)ncnc6[nH]5)cc4)CC3)CC2)cc1N1CCC(=O)NC1=O"
  Quantity name: "IKZF3 deg Amax %"
  Reported measurement: 102.4
- Compound: "COc1ccc(C(=O)N2CCC(CN3CCC(Oc4ccc(-c5cc6c(-c7cc(F)cc(NC(=O)N8C[C@H](CC(C)C)[C@@H](O)C8)c7C)ncnc6[nH]5)cc4)CC3)CC2)cc1N1CCC(=O)NC1=O"
  Quantity name: "IKZF3 deg Amax %"
  Reported measurement: 96.7
- Compound: "COc1ccc(C(=O)N2CCC(OC3CCN(Cc4ccc(-c5cc6c(-c7cc(F)cc(NC(=O)N8C[C@H](CC(C)C)[C@@H](O)C8)c7C)ncnc6[nH]5)cc4)CC3)CC2)cc1N1CCC(=O)NC1=O"
  Quantity name: "IKZF3 deg Amax %"
  Reported measurement: 107.4
- Compound: "COc1ccc(C(=O)N2CCC(CN3CCN(Cc4ccc(-c5cc6c(-c7cc(F)cc(NC(=O)N8C[C@H](CC(C)C)[C@@H](O)C8)c7C)ncnc6[nH]5)cc4)CC3)CC2)cc1N1CCC(=O)NC1=O"
  Quantity name: "IKZF3 deg Amax %"
  Reported measurement: 104.0
- Compound: "COc1ccc(C(=O)N2CCC3(CCN(Cc4ccc(-c5cc6c(-c7cc(F)cc(NC(=O)N8C[C@H](CC(C)C)[C@@H](O)C8)c7C)ncnc6[nH]5)cc4)CC3)CC2)cc1N1CCC(=O)NC1=O"
  Quantity name: "IKZF3 deg Amax %"
  Reported measurement: 93.5
- Compound: "COc1ccc(C(=O)N2CCC3(CCN(Cc4ccc(-c5cc6c(-c7cc(F)cc(NC(=O)N8C[C@@H](CC(C)C)[C@H](O)C8)c7C)ncnc6[nH]5)cc4)CC3)CC2)cc1N1CCC(=O)NC1=O [Compound 1]"
  Quantity name: "IKZF3 deg Amax %"
  Reported measurement: 102.7
- Compound: "COc1ccc(C(=O)N2CCC(OC3CCN(CCc4ccc(-c5cc6c(-c7cc(F)cc(NC(=O)N8C[C@H](CC(C)C)[C@@H](O)C8)c7C)ncnc6[nH]5)cc4)CC3)CC2)cc1N1CCC(=O)NC1=O"
  Quantity name: "IKZF3 deg Amax %"
  Reported measurement: 99.7
- Compound: "COc1ccc(C(=O)N2CCC(CCN3CCC(OCc4ccc(-c5cc6c(-c7cc(F)cc(NC(=O)N8C[C@H](CC(C)C)[C@@H](O)C8)c7C)ncnc6[nH]5)cc4)CC3)CC2)cc1N1CCC(=O)NC1=O"
  Quantity name: "IKZF3 deg Amax %"
  Reported measurement: 100.2
- Compound: "COc1ccc(C(=O)N2CCC(CN3CCN(Cc4ccc(-c5cc6c(-c7cc(F)cc(NC(=O)N8C[C@@H](CC(C)C)[C@H](O)C8)c7C)ncnc6[nH]5)cc4)CC3)CC2)cc1N1CCC(=O)NC1=O"
  Quantity name: "IKZF3 deg Amax %"
  Reported measurement: 99.3
- Compound: "COc1ccc(C(=O)N2CCC3(CCN(CCc4ccc(-c5cc6c(-c7cc(F)cc(NC(=O)N8C[C@H](CC(C)C)[C@@H](O)C8)c7C)ncnc6[nH]5)cc4)CC3)CC2)cc1N1CCC(=O)NC1=O"
  Quantity name: "IKZF3 deg Amax %"
  Reported measurement: 100.2
- Compound: "COc1ccc(C(=O)N2CCC(OCCN3CCN(Cc4ccc(-c5cc6c(-c7cc(F)cc(NC(=O)N8C[C@H](CC(C)C)[C@@H](O)C8)c7C)ncnc6[nH]5)cc4)CC3)CC2)cc1N1CCC(=O)NC1=O"
  Quantity name: "IKZF3 deg Amax %"
  Reported measurement: 101.8

====

A collection of compounds and their measured BTK deg Amax %
# Target entity: BTK-GFP (Homo sapiens, UniProt Q06187+Q96SW2)
# Construct: the BTK open reading frame (ORF) was first shuttled from a pcDNA-DEST40-BTK vector (Invitrogen library ID INV_20090504v1); expressed in transfected cells; host or cells: HEK293A cells (Invitrogen R70507), lentiviral transduction with pLenti6-BTK-GFP-Ires-RFP, blasticidin-selected
# Run description: BTK-GFP protein abundance flow cytometry assay in HEK293A cells
# Format: cell-based
# Condition details: 24 h, % protein remaining at concentration of maximum degradation
Quantity name: BTK deg Amax %

- Molecule: "COc1ccc(C(=O)N2CCC(CN3CCC(COc4ccc(-c5cc6c(-c7cc(F)cc(NC(=O)N8C[C@H](CC(C)C)[C@@H](O)C8)c7C)ncnc6[nH]5)cc4)CC3)CC2)cc1N1CCC(=O)NC1=O"
  Target entity: "BTK-GFP (Homo sapiens, UniProt Q06187+Q96SW2)"
  Quantity name: "BTK deg Amax %"
  Reported measurement: "3.4%"
- Molecule: "COc1ccc(C(=O)N2CCC3(CCN(CCc4ccc(-c5cc6c(-c7cc(F)cc(NC(=O)N8C[C@H](CC(C)C)[C@@H](O)C8)c7C)ncnc6[nH]5)cc4)CC3)CC2)cc1N1CCC(=O)NC1=O"
  Target entity: "BTK-GFP (Homo sapiens, UniProt Q06187+Q96SW2)"
  Quantity name: "BTK deg Amax %"
  Reported measurement: "4%"
- Molecule: "COc1ccc(C(=O)N2CCC(CCN3CCC(Oc4ccc(-c5cc6c(-c7cc(F)cc(NC(=O)N8C[C@H](CC(C)C)[C@@H](O)C8)c7C)ncnc6[nH]5)cc4)CC3)CC2)cc1N1CCC(=O)NC1=O"
  Target entity: "BTK-GFP (Homo sapiens, UniProt Q06187+Q96SW2)"
  Quantity name: "BTK deg Amax %"
  Reported measurement: "3%"

====

A collection of compounds and their measured DC50
# Target entity: BTK(C481S)-GFP (Homo sapiens, UniProt Q06187+Q96SW2, C481S)
# Construct: with a mutagenesis reaction on pENTR221-BTK (STOP-Leu); CHYSEL (cis-acting hydrolase element, 2A) remnant after GFP; mCherry is split off as a separate protein (C); expressed in transfected cells; host or cells: TMD8 cells, lentiviral transduction with pLenti6-BTK(C481S)-GFP-CHYSEL-mCherry
# Sequence (Q06187 whole entry C481S): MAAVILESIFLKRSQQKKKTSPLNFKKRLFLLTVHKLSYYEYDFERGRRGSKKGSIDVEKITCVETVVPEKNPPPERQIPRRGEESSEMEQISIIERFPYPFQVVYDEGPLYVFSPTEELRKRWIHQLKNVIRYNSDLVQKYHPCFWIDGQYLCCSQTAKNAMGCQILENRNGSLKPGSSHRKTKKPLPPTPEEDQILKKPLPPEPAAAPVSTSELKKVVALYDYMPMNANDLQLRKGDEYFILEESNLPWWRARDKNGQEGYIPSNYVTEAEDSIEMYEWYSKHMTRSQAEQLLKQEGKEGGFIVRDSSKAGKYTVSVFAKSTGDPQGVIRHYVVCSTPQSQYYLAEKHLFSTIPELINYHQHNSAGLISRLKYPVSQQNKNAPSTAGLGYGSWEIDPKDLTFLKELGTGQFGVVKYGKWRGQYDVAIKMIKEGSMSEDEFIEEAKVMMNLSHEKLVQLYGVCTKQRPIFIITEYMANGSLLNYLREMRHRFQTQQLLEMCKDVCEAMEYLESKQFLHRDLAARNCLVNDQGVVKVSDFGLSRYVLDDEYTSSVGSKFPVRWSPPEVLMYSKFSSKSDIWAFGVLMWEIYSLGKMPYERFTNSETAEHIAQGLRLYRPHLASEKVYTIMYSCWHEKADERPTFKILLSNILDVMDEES
# Sequence (Q96SW2 whole entry): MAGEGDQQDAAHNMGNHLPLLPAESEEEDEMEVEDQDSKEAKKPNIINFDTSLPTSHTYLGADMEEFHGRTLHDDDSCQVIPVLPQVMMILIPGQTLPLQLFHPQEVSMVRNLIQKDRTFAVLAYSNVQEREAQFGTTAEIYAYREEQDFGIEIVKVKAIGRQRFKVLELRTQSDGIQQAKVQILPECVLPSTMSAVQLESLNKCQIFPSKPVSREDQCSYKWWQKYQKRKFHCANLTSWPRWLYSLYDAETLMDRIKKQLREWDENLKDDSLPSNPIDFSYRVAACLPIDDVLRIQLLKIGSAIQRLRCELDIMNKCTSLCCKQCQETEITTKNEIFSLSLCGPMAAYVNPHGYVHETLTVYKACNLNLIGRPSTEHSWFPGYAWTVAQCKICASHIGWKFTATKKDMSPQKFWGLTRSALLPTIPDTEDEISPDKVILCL
# Sequence (Q16531 whole entry partner): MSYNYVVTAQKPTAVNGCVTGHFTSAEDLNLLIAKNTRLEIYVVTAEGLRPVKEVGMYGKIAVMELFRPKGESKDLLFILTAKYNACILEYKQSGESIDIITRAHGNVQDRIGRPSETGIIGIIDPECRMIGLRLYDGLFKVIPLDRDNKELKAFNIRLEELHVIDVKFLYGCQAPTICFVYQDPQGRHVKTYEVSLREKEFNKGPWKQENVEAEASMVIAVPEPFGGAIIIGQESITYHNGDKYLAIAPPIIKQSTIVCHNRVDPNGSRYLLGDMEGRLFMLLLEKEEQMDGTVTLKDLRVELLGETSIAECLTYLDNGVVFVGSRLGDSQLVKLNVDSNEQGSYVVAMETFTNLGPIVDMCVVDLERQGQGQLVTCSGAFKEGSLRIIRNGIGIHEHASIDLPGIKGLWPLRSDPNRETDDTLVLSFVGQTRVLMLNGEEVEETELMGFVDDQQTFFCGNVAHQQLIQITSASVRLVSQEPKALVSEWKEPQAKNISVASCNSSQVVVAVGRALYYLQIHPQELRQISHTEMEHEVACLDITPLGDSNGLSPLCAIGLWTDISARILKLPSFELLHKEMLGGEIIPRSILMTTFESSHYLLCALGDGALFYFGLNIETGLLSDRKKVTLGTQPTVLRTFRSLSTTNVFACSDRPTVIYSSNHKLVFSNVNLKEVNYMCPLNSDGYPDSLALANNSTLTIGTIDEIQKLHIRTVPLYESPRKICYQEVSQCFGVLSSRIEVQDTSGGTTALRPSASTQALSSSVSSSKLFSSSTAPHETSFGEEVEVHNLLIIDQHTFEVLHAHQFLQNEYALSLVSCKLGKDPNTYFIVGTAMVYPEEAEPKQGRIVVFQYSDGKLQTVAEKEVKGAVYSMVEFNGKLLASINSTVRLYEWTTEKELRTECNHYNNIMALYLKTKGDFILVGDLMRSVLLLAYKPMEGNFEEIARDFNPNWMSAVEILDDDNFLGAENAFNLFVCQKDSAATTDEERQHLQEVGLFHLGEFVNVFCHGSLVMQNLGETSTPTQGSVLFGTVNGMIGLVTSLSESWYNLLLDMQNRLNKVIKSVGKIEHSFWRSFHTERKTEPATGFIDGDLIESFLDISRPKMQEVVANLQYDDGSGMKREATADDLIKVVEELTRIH
# Run description: BTK(C481S)-GFP protein abundance flow cytometry assay in TMD8 cells
# Format: cell-based
# Condition details: concentration at which 50% maximal degradation was observed

- Molecule: "COc1ccc(C(=O)N2CCC3(CCN(Cc4ccc(-c5cc6c(-c7cc(F)cc(NC(=O)N8C[C@H](CC(C)C)[C@@H](O)C8)c7C)ncnc6[nH]5)cc4)CC3)CC2)cc1N1CCC(=O)NC1=O"
  DC50, nM: 0.7
- Molecule: "COc1ccc(C(=O)N2CCC(OC3CCN(CCc4ccc(-c5cc6c(-c7cc(F)cc(NC(=O)N8C[C@H](CC(C)C)[C@@H](O)C8)c7C)ncnc6[nH]5)cc4)CC3)CC2)cc1N1CCC(=O)NC1=O"
  DC50, nM: 0.2
- Molecule: "COc1ccc(C(=O)N2CCC(OC3CCN(Cc4ccc(-c5cc6c(-c7cc(F)cc(NC(=O)N8C[C@H](CC(C)C)[C@@H](O)C8)c7C)ncnc6[nH]5)cc4)CC3)CC2)cc1N1CCC(=O)NC1=O"
  DC50, nM: 0.4
- Molecule: "COc1ccc(C(=O)N2CCC(CN3CCC(Oc4ccc(-c5cc6c(-c7cc(F)cc(NC(=O)N8C[C@H](CC(C)C)[C@@H](O)C8)c7C)ncnc6[nH]5)cc4)CC3)CC2)cc1N1CCC(=O)NC1=O"
  DC50, nM: 0.2
- Molecule: "COc1ccc(C(=O)N2CCC3(CCN(CCc4ccc(-c5cc6c(-c7cc(F)cc(NC(=O)N8C[C@@H](CC(C)C)[C@H](O)C8)c7C)ncnc6[nH]5)cc4)CC3)CC2)cc1N1CCC(=O)NC1=O"
  DC50, nM: 16

====

# Target entity: BTK(C481S)-GFP (Homo sapiens, UniProt Q06187+Q96SW2, C481S)
# Construct: with a mutagenesis reaction on pENTR221-BTK (STOP-Leu); CHYSEL (cis-acting hydrolase element, 2A) remnant after GFP; mCherry is split off as a separate protein (C); expressed in transfected cells; host or cells: TMD8 cells, lentiviral transduction with pLenti6-BTK(C481S)-GFP-CHYSEL-mCherry
# Run description: BTK(C481S)-GFP protein abundance flow cytometry assay in TMD8 cells
# Assay type: cell-based
# Condition details: % protein remaining at concentration of maximum degradation
A collection of compounds and their measured BTK (C481S) Amax %

- Compound: "COc1ccc(C(=O)N2CCC(CN3CCC(Oc4ccc(-c5cc6c(-c7cc(F)cc(NC(=O)N8C[C@H](CC(C)C)[C@@H](O)C8)c7C)ncnc6[nH]5)cc4)CC3)CC2)cc1N1CCC(=O)NC1=O"
  Target entity: "BTK(C481S)-GFP (Homo sapiens, UniProt Q06187+Q96SW2, C481S)"
  Quantity unit: "%"
  BTK (C481S) Amax %: 2.2
- Compound: "COc1ccc(C(=O)N2CCC(CN3CCN(Cc4ccc(-c5cc6c(-c7cc(F)cc(NC(=O)N8C[C@H](CC(C)C)[C@@H](O)C8)c7C)ncnc6[nH]5)cc4)CC3)CC2)cc1N1CCC(=O)NC1=O"
  Target entity: "BTK(C481S)-GFP (Homo sapiens, UniProt Q06187+Q96SW2, C481S)"
  Quantity unit: "%"
  BTK (C481S) Amax %: 3.0
- Compound: "COc1ccc(C(=O)N2CCC(OC3CCN(Cc4ccc(-c5cc6c(-c7cc(F)cc(NC(=O)N8C[C@H](CC(C)C)[C@@H](O)C8)c7C)ncnc6[nH]5)cc4)CC3)CC2)cc1N1CCC(=O)NC1=O"
  Target entity: "BTK(C481S)-GFP (Homo sapiens, UniProt Q06187+Q96SW2, C481S)"
  Quantity unit: "%"
  BTK (C481S) Amax %: 2.7
- Compound: "COc1ccc(C(=O)N2CCC3(CCN(Cc4ccc(-c5cc6c(-c7cc(F)cc(NC(=O)N8C[C@@H](CC(C)C)[C@H](O)C8)c7C)ncnc6[nH]5)cc4)CC3)CC2)cc1N1CCC(=O)NC1=O (racemic) [Compound 5]"
  Target entity: "BTK(C481S)-GFP (Homo sapiens, UniProt Q06187+Q96SW2, C481S)"
  Quantity unit: "%"
  BTK (C481S) Amax %: 2.0
- Compound: "COc1ccc(C(=O)N2CCC3(CCN(CCc4ccc(-c5cc6c(-c7cc(F)cc(NC(=O)N8C[C@H](CC(C)C)[C@@H](O)C8)c7C)ncnc6[nH]5)cc4)CC3)CC2)cc1N1CCC(=O)NC1=O"
  Target entity: "BTK(C481S)-GFP (Homo sapiens, UniProt Q06187+Q96SW2, C481S)"
  Quantity unit: "%"
  BTK (C481S) Amax %: 3.0
- Compound: "COc1ccc(C(=O)N2CCC3(CCN(Cc4ccc(-c5cc6c(-c7cc(F)cc(NC(=O)N8C[C@@H](CC(C)C)[C@H](O)C8)c7C)ncnc6[nH]5)cc4)CC3)CC2)cc1N1CCC(=O)NC1=O [Compound 1]"
  Target entity: "BTK(C481S)-GFP (Homo sapiens, UniProt Q06187+Q96SW2, C481S)"
  Quantity unit: "%"
  BTK (C481S) Amax %: 3.6
- Compound: "COc1ccc(C(=O)N2CCC(OCCN3CCN(Cc4ccc(-c5cc6c(-c7cc(F)cc(NC(=O)N8C[C@H](CC(C)C)[C@@H](O)C8)c7C)ncnc6[nH]5)cc4)CC3)CC2)cc1N1CCC(=O)NC1=O"
  Target entity: "BTK(C481S)-GFP (Homo sapiens, UniProt Q06187+Q96SW2, C481S)"
  Quantity unit: "%"
  BTK (C481S) Amax %: 2.0
- Compound: "COc1ccc(C(=O)N2CCC(OC3CCN(CCc4ccc(-c5cc6c(-c7cc(F)cc(NC(=O)N8C[C@H](CC(C)C)[C@@H](O)C8)c7C)ncnc6[nH]5)cc4)CC3)CC2)cc1N1CCC(=O)NC1=O"
  Target entity: "BTK(C481S)-GFP (Homo sapiens, UniProt Q06187+Q96SW2, C481S)"
  Quantity unit: "%"
  BTK (C481S) Amax %: 1.1
- Compound: "COc1ccc(C(=O)N2CCC3(CCN(Cc4ccc(-c5cc6c(-c7cc(F)cc(NC(=O)N8C[C@H](CC(C)C)[C@@H](O)C8)c7C)ncnc6[nH]5)cc4)CC3)CC2)cc1N1CCC(=O)NC1=O"
  Target entity: "BTK(C481S)-GFP (Homo sapiens, UniProt Q06187+Q96SW2, C481S)"
  Quantity unit: "%"
  BTK (C481S) Amax %: 2.1
- Compound: "COc1ccc(C(=O)N2CCC3(CCN(CCc4ccc(-c5cc6c(-c7cc(F)cc(NC(=O)N8C[C@@H](CC(C)C)[C@H](O)C8)c7C)ncnc6[nH]5)cc4)CC3)CC2)cc1N1CCC(=O)NC1=O"
  Target entity: "BTK(C481S)-GFP (Homo sapiens, UniProt Q06187+Q96SW2, C481S)"
  Quantity unit: "%"
  BTK (C481S) Amax %: 2.9
- Compound: "COc1ccc(C(=O)N2CCC(CCN3CCC(OCc4ccc(-c5cc6c(-c7cc(F)cc(NC(=O)N8C[C@H](CC(C)C)[C@@H](O)C8)c7C)ncnc6[nH]5)cc4)CC3)CC2)cc1N1CCC(=O)NC1=O"
  Target entity: "BTK(C481S)-GFP (Homo sapiens, UniProt Q06187+Q96SW2, C481S)"
  Quantity unit: "%"
  BTK (C481S) Amax %: 2.1
